test system: Human immunodeficiency virus 1; assay: Antiviral activity against HIV1 LAI infected in PHA-P activated human PBMC assessed as reduction in viral replication preincubated with cells for 30 mins followed by viral infection and measured at day 7 post infection by reverse transcriptase activity-based assay; type: functional, organism-based; settings: Human immunodeficiency virus 1, LAI
READOUT_LABEL: EC50

Some solved cases for reference:
>>> val("C[C@H](Cn1cnc2c(N)ncnc21)OCP(=O)(O)O [TENOFOVIR ANHYDROUS]")
"1.1 µM"
>>> val("O=P(O)(O)CO[C@H]1C[C@@H](n2cnc3c(O)ncnc32)C=C1I (racemic)")
"≥ 10 µM"
>>> val("Nc1nc2c(ncn2[C@H]2C=C(F)[C@@H](OCP(=O)(O)O)C2)c(=O)[nH]1 (racemic)")
"≥ 10 µM"
>>> val("Nc1nc(O)c2ncn([C@H]3C=C(I)[C@@H](OCP(=O)(O)O)C3)c2n1 (racemic)")
"≥ 10 µM"
>>> val("O=P(O)(O)CO[C@H]1C[C@@H](n2cnc3c(NC4CC4)ncnc32)C=C1I (racemic)")
"≥ 10 µM"
>>> val("Nc1ncnc2c1ncn2[C@H]1C=C(I)[C@@H](OCP(=O)(O)O)C1 (racemic)")
"5.9 µM"

Consider now this further compound.
Q: Retrieve EC50 measured for Nc1ncnc2c1ncn2[C@H]1C=C(F)[C@@H](OCP(=O)(O)O)C1 (racemic) and print it.
Result: 0.88 µM
